- Assay method text: in vitro
- Test conditions: human, microsomes, pH 7.4
Readout type: log10 of half-life (log10 of the value in h)

Molecule | log10 of half-life
C=CC[C@H](C(N)=O)[C@@H](CC(C)C)C(=O)N[C@H]1N=C(c2ccccc2)c2ccccc2N(CCC)C1=O [Comparative Compound 48, reference compound] | -1.30
CCC[C@H](C(N)=O)[C@@H](CC(C)C)C(=O)N[C@H]1N=C(c2ccccc2)c2ccccc2N(C)C1=O [Comparative Compound 45, reference compound] | -0.88
Cc1cccc(C2=N[C@H](NC(=O)[C@H](CCC(F)(F)F)[C@H](CCC(F)(F)F)C(N)=O)C(=O)Nc3ccccc32)c1 | 0.14
COc1ccc(C2=N[C@H](NC(=O)[C@H](CCC(F)(F)F)[C@H](CCC(F)(F)F)C(N)=O)C(=O)Nc3ccccc32)cc1 | 0.29
NC(=O)[C@@H](CCC(F)(F)F)[C@@H](CCC(F)(F)F)C(=O)N[C@H]1N=C(c2ccccc2)c2cccc(OC3CC3)c2NC1=O | 0.26
CCCC[C@H](C(N)=O)[C@@H](CC(C)C)C(=O)N[C@H]1N=C(c2ccc(Cl)cc2)c2ccccc2N(C)C1=O [Comparative Compound 47, reference compound] | -1.00
COc1cccc2c1NC(=O)[C@@H](NC(=O)[C@H](CCC(F)(F)F)[C@H](CCC(F)(F)F)C(N)=O)N=C2c1ccc(Cl)cn1 | 0.29
NC(=O)[C@@H](CCC(F)(F)F)[C@@H](CCC(F)(F)F)C(=O)N[C@H]1N=C(c2ccc(CO)cc2)c2ccccc2NC1=O | 0.18
CCc1cccc2c1NC(=O)[C@@H](NC(=O)[C@H](CCC(F)(F)F)[C@H](CCC(F)(F)F)C(N)=O)N=C2c1cccc(C)c1 | -0.26
COc1cccc2c1NC(=O)[C@@H](NC(=O)[C@H](CCC(F)(F)F)[C@H](CCC(F)(F)F)C(N)=O)N=C2c1cccc(Cl)c1 | 0.14
NC(=O)[C@@H](CCCC(F)(F)F)[C@@H](CCC(F)(F)F)C(=O)N[C@H]1N=C(c2ccccc2)c2cccc(OC3CC3)c2NC1=O | 0.26
Cc1cccc(C2=N[C@H](NC(=O)[C@H](CCC(F)(F)F)[C@H](CCC(F)(F)F)C(N)=O)C(=O)Nc3c(Cl)cccc32)c1 | 0.21

---

- Assay method text: in vitro
- Test conditions: human, microsomes, pH 7.4

Molecule | Sign qualifier | half-life / h
Cc1cccc(C2=N[C@H](NC(=O)[C@H](CCC(F)(F)F)[C@H](CCC(F)(F)F)C(N)=O)C(=O)Nc3c2cccc3C(C)C)c1 | = | 0.883
NC(=O)[C@@H](CCC(F)(F)F)[C@@H](CCC(F)(F)F)C(=O)N[C@H]1N=C(c2ccccc2)c2cccc(C3CC3)c2NC1=O | = | 1.03
Cc1ccccc1C1=N[C@H](NC(=O)[C@H](CCC(F)(F)F)[C@H](CCC(F)(F)F)C(N)=O)C(=O)Nc2c(Cl)cccc21 | = | 1.78
Cc1cccc2c1NC(=O)[C@@H](NC(=O)[C@H](CCC(F)(F)F)[C@H](CCCC(F)(F)F)C(N)=O)N=C2c1cccc(C(F)(F)F)c1 | > | 2
Cc1cccc2c1NC(=O)[C@@H](NC(=O)[C@H](CCC(F)(F)F)[C@H](CCCC(F)(F)F)C(N)=O)N=C2c1cccc(Cl)c1 | = | 1.18
NC(=O)[C@@H](CCC(F)(F)F)[C@@H](CCC(F)(F)F)C(=O)N[C@H]1N=C(c2cccc(F)c2)c2cccc(CO)c2NC1=O | = | 1.02
Cc1cccc(C2=N[C@H](NC(=O)[C@H](CCC(F)(F)F)[C@H](CCC(F)(F)F)C(N)=O)C(=O)Nc3c2cccc3C(F)(F)F)c1 | = | 1.88
C=CC[C@H](C(N)=O)[C@@H](CC(C)C)C(=O)N[C@H]1N=C(c2ccccc2)c2cc(Cl)ccc2N(C)C1=O [Comparative Compound 46, reference compound] | = | 0.1
Cc1cccc2c1NC(=O)[C@@H](NC(=O)[C@H](CCC(F)(F)F)[C@H](CCC(F)(F)F)C(N)=O)N=C2c1ccccc1 | = | 1.68
NC(=O)[C@@H](CCC(F)(F)F)[C@@H](CCC(F)(F)F)C(=O)N[C@H]1N=C(c2cccc(C3CC3)c2)c2cccc(Cl)c2NC1=O | > | 2
Cc1cccc2c1NC(=O)[C@@H](NC(=O)[C@H](CCC(F)(F)F)[C@H](CCC(F)(F)F)C(N)=O)N=C2c1ccc(F)cc1 | > | 2
Cc1cccc(C2=N[C@H](NC(=O)[C@H](CCC(F)(F)F)[C@H](CCC(F)(F)F)C(N)=O)C(=O)Nc3c(OC4CC4)cccc32)c1 | = | 1.68
